# pKd measurements, system: Cbl-b (residues 36-427) (Homo sapiens)
# Sequence (Q13191 36-427): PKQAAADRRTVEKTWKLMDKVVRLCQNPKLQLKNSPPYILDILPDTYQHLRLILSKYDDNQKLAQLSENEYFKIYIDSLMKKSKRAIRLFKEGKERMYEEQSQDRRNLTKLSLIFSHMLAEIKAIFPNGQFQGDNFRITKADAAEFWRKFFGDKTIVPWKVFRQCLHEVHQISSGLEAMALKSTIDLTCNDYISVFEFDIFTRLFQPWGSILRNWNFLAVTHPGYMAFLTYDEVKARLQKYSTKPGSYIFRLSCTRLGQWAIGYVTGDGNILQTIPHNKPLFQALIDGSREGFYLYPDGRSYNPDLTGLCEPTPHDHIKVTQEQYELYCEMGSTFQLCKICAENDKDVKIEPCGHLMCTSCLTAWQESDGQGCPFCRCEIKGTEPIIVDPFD
pKd: −log10 of the molar value.

Examples from the recorded data:
[
  {
    "compound": "C[C@H](Sc1nncn1C)c1cccc(NC(=O)c2cc(C(=O)N3CCC[C@H](O)C3)ccn2)c1",
    "tested_target": "Cbl-b (residues 36-427) (Homo sapiens)",
    "meas_value": "< 5.00"
  },
  {
    "compound": "CNCCNC(=O)c1ccnc(C(=O)Nc2cccc([C@H](C)Cc3nncn3C)c2)c1",
    "tested_target": "Cbl-b (residues 36-427) (Homo sapiens)",
    "meas_value": "5.52 to 6.00"
  }
]

For each of the compounds below, note its pKd.
1. Cn1cnnc1C(F)(F)[C@](C)(F)c1cccc(N2Cc3c(cc(C(=O)N4CC[C@H](O)C4)cc3C(F)(F)F)C2=O)c1
2. C[C@H](Cc1nncn1C)c1cccc(NC(=O)c2cc(C3CC3)nc(C3CC3)n2)c1
3. Cc1cc(C(=O)Nc2cccc([C@@](C)(F)C(F)(F)c3nncn3C)c2)nc(C2CC2)n1
4. C[C@H](Cc1nncn1C)c1cccc(NC(=O)c2cc(C(=O)N[C@H]3CCNC3)ccn2)c1

Reply:
1. 6.52 to 7.00
2. > 7.00
3. > 7.00
4. 5.00 to 5.52

Please report pKd for every entry that follows.
1. C[C@H](Sc1nncn1C)c1cc(F)cc(N2Cc3c(cccc3C(F)(F)F)C2=O)c1 [Compound 168a]
2. C[C@H](Sc1nncn1C)c1ccnc(NC(=O)c2cc(N3CC[C@H](O)C3)cc(C(F)(F)F)n2)c1
3. C[C@H](Cc1nncn1C)c1cc(NC2COC2)nc(N2Cc3c(cccc3C(F)(F)F)C2=O)c1
4. C[C@H](Cc1nncn1C)c1cccc(NC(=O)c2cncc(C(F)(F)F)n2)c1
5. C[C@H](Sc1nncn1C)c1cccc(NC(=O)c2cc(C(=O)N3CC[C@@H](N)C3)ccn2)c1
6. Cn1cnnc1[C@@H]1C[C@@H]1c1cccc(N2Cc3c(cc(C#N)cc3C(F)(F)F)C2=O)c1

Reply:
6.00 to 6.52
5.00 to 5.52
6.52 to 7.00
6.00 to 6.52
5.00 to 5.52
6.52 to 7.00

---

// endpoint Kd / system Cbl-b (residues 36-427) (Homo sapiens)

Known results for compounds:
[
  {
    "compound": "CC(Sc1nncn1C)c1cc(NC[C@H](C)O)nc(N2Cc3c(cccc3C(F)(F)F)C2=O)c1 (some centres unmarked)",
    "meas_value": "3 to 10 µM"
  },
  {
    "compound": "C[C@H](Cc1nncn1C)c1cccc(N2Cc3c(cc(CN4CC[C@H](O)C4)cc3C(F)(F)F)C2=O)c1",
    "meas_value": "< 0.1 µM"
  },
  {
    "compound": "C[C@H](Sc1nncn1C)c1cccc(NC(=O)c2cc(C(F)(F)F)c(Cl)cn2)c1",
    "meas_value": "3 to 10 µM"
  },
  {
    "compound": "C[C@H](Cc1nncn1C)c1cccc(N2Cc3c(cc(CN4CC(F)(F)C4)cc3C(F)(F)F)C2=O)c1",
    "meas_value": "< 0.1 µM"
  },
  {
    "compound": "C[C@H](Cc1nnc[nH]1)c1cccc(N2Cc3c(cccc3C(F)(F)F)C2=O)c1",
    "meas_value": "0.301 to 1 µM"
  },
  {
    "compound": "C[C@H](Cc1ncnn1C)c1cccc(N2Cc3c(cccc3C(F)(F)F)C2=O)c1",
    "meas_value": "> 10 µM"
  },
  {
    "compound": "C[C@H](Cc1nncn1C)c1cccc(N2Cc3c(cc(CN4CCC(F)(F)C4)cc3C(F)(F)F)C2=O)c1",
    "meas_value": "< 0.1 µM"
  }
]

Could you now consider this next compound?
Query: Requested read-out: Kd. Entry: "Cc1nc(C(=O)Nc2cccc([C@H](C)Sc3nncn3C)c2)cs1"
Reply: 1 to 3 µM
